All figures here come from ChEMBL document CHEMBL1135548.

- Target Or System: Adenosine receptor A1 (Homo sapiens)
- Sequence (P30542 whole entry): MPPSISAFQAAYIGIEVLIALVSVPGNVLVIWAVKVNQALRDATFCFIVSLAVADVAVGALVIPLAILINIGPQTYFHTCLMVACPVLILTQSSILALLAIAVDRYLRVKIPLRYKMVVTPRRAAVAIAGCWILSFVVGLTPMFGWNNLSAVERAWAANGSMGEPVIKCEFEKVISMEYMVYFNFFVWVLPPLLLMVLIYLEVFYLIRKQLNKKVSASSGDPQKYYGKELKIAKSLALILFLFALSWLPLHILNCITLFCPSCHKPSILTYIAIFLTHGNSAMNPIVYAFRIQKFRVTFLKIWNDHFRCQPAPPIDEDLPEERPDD
- Measurement Notes: biochemical
- Type: cell-based, CHO
- Description: Inhibition of [3H]DPCPX binding to human Adenosine A1 receptor expressed in CHO cells
pKi: −log10 of the molar value.

Molecule	Target Or System	pKi
COc1ccc(-c2csc3nc(=O)cc(N)n23)cc1	Adenosine receptor A1 (Homo sapiens)	< 5.00

* * *

- Target Or System: Adenosine receptor A2b (Homo sapiens, UniProt P29275)
- Sequence (P29275 whole entry): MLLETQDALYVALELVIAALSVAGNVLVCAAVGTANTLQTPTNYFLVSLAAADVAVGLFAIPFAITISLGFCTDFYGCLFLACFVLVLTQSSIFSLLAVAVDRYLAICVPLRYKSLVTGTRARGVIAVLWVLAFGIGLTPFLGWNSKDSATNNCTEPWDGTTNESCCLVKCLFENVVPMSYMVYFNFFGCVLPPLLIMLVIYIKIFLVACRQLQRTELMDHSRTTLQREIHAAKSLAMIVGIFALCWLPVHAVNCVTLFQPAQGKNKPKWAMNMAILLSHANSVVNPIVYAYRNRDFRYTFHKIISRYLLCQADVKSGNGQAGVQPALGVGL
- Measurement Notes: biochemical
Property Measured: Ki (nM)

Molecule	Target Or System	Property Measured	Readout Number
CCCCc1nc2[nH]cnc2c2nc(-c3ccc(OC)cc3)nn12	Adenosine receptor A2b (Homo sapiens, UniProt P29275)	Ki	1030

* * *

- Target Or System: Adenosine receptor A1 (Homo sapiens)
- Measurement Notes: biochemical
Property Measured: Ki (nM)

Molecule	Target Or System	Property Measured	Readout Number
CCCCc1nc2[nH]cnc2c2nc(-c3ccc(N(C)C)cc3)nn12	Adenosine receptor A1 (Homo sapiens)	Ki	1310

* * *

- Target Or System: Adenosine receptor A2b (Homo sapiens)
- Measurement Notes: biochemical
- Description: Inhibition of [3H]DPCPX binding to human Adenosine A2B receptor expressed in HEK cells; Range 3580-12400
pKi: −log10 of the molar value.

Molecule	pKi
CCCCc1nc2[nH]cnc2c2nc(-c3ccc(N(C)C)cc3)nn12	5.18

* * *

- Target Or System: Adenosine receptor A2a (Homo sapiens)
- Measurement Notes: biochemical
pKi: −log10 of the molar value.
Property Measured: pKi

Molecule	Readout Number
CCCCc1nc2[nH]cnc2c2nc(-c3ccc(OC)cc3)nn12	6.05

* * *

- Target Or System: UniProt P30542
- Measurement Notes: biochemical

Molecule	Ki / nM
CCCCc1nc2nc[nH]c2c2nc(-c3ccc(OCC)cc3)nn12	413

* * *

- Target Or System: Adenosine receptor A2a (Homo sapiens, UniProt P29274)
- Sequence (P29274 whole entry): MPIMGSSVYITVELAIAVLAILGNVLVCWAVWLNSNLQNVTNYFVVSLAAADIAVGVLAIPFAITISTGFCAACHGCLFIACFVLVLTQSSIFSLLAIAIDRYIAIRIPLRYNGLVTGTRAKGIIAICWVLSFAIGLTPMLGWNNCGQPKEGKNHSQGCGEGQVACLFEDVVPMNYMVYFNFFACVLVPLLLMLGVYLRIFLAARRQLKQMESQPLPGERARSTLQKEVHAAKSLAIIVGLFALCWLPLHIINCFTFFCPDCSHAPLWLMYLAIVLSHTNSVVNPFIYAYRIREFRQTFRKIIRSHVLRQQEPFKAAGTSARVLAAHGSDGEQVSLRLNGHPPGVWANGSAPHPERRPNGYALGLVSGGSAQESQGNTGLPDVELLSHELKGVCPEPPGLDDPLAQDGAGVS
pIC50: −log10 of the molar value.

Molecule	pIC50
CCCCc1nc2[nH]cnc2c2nc(C)nn12	7.34
CCCCc1nc2[nH]cnc2c2nc(-c3cccc(C)c3)nn12	6.73
CCCCc1nc2[nH]cnc2c2nc(-c3ccc(OC)cc3)nn12	5.80
CCCCCCc1nc2nc[nH]c2c2nc(-c3ccccc3)nn12	5.11
Cc1nc2[nH]cnc2c2nc(-c3ccccc3)nn12	6.26
CCCc1nc2nc[nH]c2c2nc(-c3ccccc3)nn12	6.92
CCCCCc1nc2nc[nH]c2c2nc(-c3ccccc3)nn12	6.70

* * *

- Target Or System: Adenosine receptor A2a (Homo sapiens)
- Measurement Notes: biochemical
- Description: Inhibition of [3H]CGS-21680 binding to human Adenosine A2A receptor expressed in HEK293 cells

Molecule	Target Or System	Ki
COc1ccc(-c2csc3nc(=O)cc(N)n23)cc1	Adenosine receptor A2a (Homo sapiens)	> 10 µM
